Data credit: paper PMC6010053

- measurementTarget: AKR1B10 (Homo sapiens)
- Construct: 6xHis; made in house; host or cells: E. coli BL21 (DE3)
- Sequence (O60218 whole entry): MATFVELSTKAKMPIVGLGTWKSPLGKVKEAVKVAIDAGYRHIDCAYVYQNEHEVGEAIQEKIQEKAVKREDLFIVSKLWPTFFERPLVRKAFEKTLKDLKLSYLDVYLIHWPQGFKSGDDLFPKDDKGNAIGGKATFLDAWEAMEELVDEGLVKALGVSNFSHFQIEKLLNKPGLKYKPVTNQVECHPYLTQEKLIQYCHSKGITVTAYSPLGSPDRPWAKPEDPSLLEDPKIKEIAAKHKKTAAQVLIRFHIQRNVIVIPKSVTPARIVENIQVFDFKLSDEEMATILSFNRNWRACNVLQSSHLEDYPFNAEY
- assayNotes: AKR1B10-catalysed glyceraldehyde (GA) reduction, NADPH absorbance decrease at 340 nm
- Assay type: biochemical
- conditions: GA at KM 4 mM; 200 μM NADPH; pH 7.4; 37 °C; mean ± SD, at least three experiments
measuredQuantity: IC50 (nM)

* COc1cc(O)c(CC=C(C)C)c2c1C(=O)CC(c1ccc(O)cc1)O2 (stereo not drawn) | 1090

a: CC(C)=CCc1c(O)cc(O)c2c1O[C@H](c1ccc(O)cc1)CC2=O
b: COc1cc(O)c(CC=C(C)C)c(O)c1C(=O)/C=C/c1ccc(O)cc1
Query :: Among a and b , whose measured IC50 is the smaller figure? Mark your answer with the label of the selected entry.
Result :: a
(a: 990 nM, b: 6560 nM)
